target: human adenosine A2A receptor (Homo sapiens, UniProt P29274); construct: expressed in transfected cells; host or cells: CHO cells, Semliki Forest virus expression system; membrane preparation; experiment: [3H]-SCH-58261 binding assay, human adenosine A2A receptor; conditions: [3H]-SCH-58261 1 nM; membranes of CHO cells expressing the recombinant receptor; Ki by Cheng-Prussoff; read-out: hA2 (pKi) (converted)
Sequence (P29274 whole entry): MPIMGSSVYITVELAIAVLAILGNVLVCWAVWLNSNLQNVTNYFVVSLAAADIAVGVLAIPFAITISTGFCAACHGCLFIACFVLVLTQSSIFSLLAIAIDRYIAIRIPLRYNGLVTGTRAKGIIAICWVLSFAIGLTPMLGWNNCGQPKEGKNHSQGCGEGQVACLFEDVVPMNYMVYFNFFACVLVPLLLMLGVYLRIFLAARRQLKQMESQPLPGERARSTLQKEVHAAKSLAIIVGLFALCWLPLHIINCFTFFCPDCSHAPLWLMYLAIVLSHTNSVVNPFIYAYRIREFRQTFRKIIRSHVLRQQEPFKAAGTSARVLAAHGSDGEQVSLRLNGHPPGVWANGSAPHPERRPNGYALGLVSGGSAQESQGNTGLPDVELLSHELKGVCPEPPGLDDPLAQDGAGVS
Value Type: Ki (nM)

Worked set:
1. CCOC(=O)Nc1nc2c(OC)ccc(C3CCOCC3)c2s1 :: 5.01
2. COCCOC(=O)Nc1nc2c(OC)ccc(N3CCOCC3)c2s1 :: 12.6

A. COc1ccc(N2CCOCC2)c2sc(NC(=O)O[C@H]3CC[C@H](O)CC3)nc12
B. COc1ccc(C2CCOCC2)c2sc(NC(=O)O[C@H]3CC[C@H](O)CC3)nc12
Request: Which value of Ki is greater, the one for A or the one for B ? Give the label under which the chosen entry appears.
Result: A

###

Value Type: melting point

Request: Please report the measured melting point for COc1ccc(N2CCOCC2)c2sc(NC(=O)O[C@H]3CC[C@@H](O)CC3)nc12 [Example 7]
Result: 204 to 206 °C

Request: Please report the measured melting point for COc1ccc(N2CCOCC2)c2sc(NC(=O)O[C@@H]3CCOC3)nc12 [Example 10]
Result: 198 to 200 °C

Request: Please report the measured melting point for COc1ccc(C2CCOCC2)c2sc(NC(=O)O[C@H]3CC[C@H](O)CC3)nc12 [Example 1]
Result: 282 to 284 °C

Request: Please report the measured melting point for COc1ccc(N2CCOCC2)c2sc(NC(=O)OC3CCCCC3)nc12 [Example 5]
Result: 177 to 179 °C

Request: Please report the measured melting point for CCOC(=O)Nc1nc2c(OC)ccc(C3CCOCC3)c2s1 [Example 2]
Result: 170 to 174 °C
